Tested on: DU-145 prostate
Assay: NCI tumour cell line growth inhibition, 48 h
OBSERVED_PROPERTY: GI50

Solved cases (2 shown):
SMILES_ENTRY	GI50
CC(C)C[C@H](CC(=O)O)C(=O)N[C@@H](Cc1c[nH]c2ccccc12)C(=O)N[C@@H](C)c1ccccc1	> 25 µM
O=C(Nc1ccc(OS(=O)(=O)c2ccc(F)cc2)cc1)C12CC3CC(CC(C3)C1)C2	13.9 µM

Consider the record given below.
Field GI50 (entry CN(C)c1ccc(/C=C/C(=O)c2ccc(Nc3nc(Nc4ccc(F)cc4)nc(Nc4ccc(F)cc4)n3)cc2)cc1 ) reads 25.1 µM

====

Below, each entry is listed alongside its reported TGI.
System: SN12C renal
Test: NCI tumour cell line growth inhibition, 48 h

Solved cases (5 shown):
MOLECULE	TGI
O=C(NCCCCCCCCCCCCNC(=O)c1cnc2ccccc2n1)c1cnc2ccccc2n1	> 100 µM
O=C(Nc1ccccc1)c1cc2ccccc2c(N=Nc2cccc([N+](=O)[O-])c2)c1O	> 100 µM
CCOC(=O)c1c(N2CCCC2)[nH]c(=O)c(C(c2c(O)c(C(=O)OCC)c(N3CCCC3)[nH]c2=O)C(C)C)c1O	> 100 µM
CC(C)C[C@H](CC(=O)O)C(=O)N[C@@H](Cc1c[nH]c2ccccc12)C(=O)N[C@@H](C)c1ccccc1	> 25 µM
O=c1cc(-c2ccc(Cl)cc2)[nH]c2ccccc12	> 100 µM

Consider the record given below.
Field TGI (entry COc1ccccc1C1C2=C(COC2=O)Oc2cc3c(cc21)OCO3 (centres undefined) ) reads > 100 µM

====

Below, each entry is listed alongside its reported GI50.
Tested on: ACHN renal
Assay: NCI tumour cell line growth inhibition, 48 h

SMILES_ENTRY	OBSERVED_PROPERTY	REPORTED
O=C(COc1ccc(/C=C2\Oc3ccc4ccccc4c3C2=O)cc1)c1ccc([N+](=O)[O-])cc1	GI50	28.3 µM

Field GI50 (entry CN1CCN(CCCOc2cccc3nc(Nc4cc(Cl)cc(Cl)c4)ccc23)CC1 ) reads 1.66 µM

Field GI50 (entry O=C1c2c(O)cccc2C(C(=O)CCCCCC(=O)C2c3cccc(O)c3C(=O)c3c(O)cccc32)c2cccc(O)c21 ) reads 9.48 µM

Field GI50 (entry O=c1cc(-c2ccc(Cl)cc2)[nH]c2ccccc12 ) reads 57.8 µM

====

Tested on: LOX IMVI melanoma
Assay: NCI tumour cell line growth inhibition, 48 h
OBSERVED_PROPERTY: TGI

Solved cases (5 shown):
COMPOUND	OBSERVED_PROPERTY	REPORTED
Cc1ccsc1/C=N/NC1=NCCN1	TGI	> 100 µM
N=c1c2sc3nc4ccccc4n3c2ncn1Cc1ccccc1	TGI	> 100 µM
C[C@@H](C1CC[C@H]2[C@@H]3[C@@H]4O[C@@H]4[C@@]4(O)CC=CC(=O)[C@]4(C)[C@H]3C[C@H](O)[C@]12C)[C@H]1C[C@]2(C)O[C@]2(C)C(=O)O1 (stereo not given in full)	TGI	> 100 µM
C1=N[C@]23C(=N[C@H](N=C2NCc2ccco2)[C@]24N=CNC2=N[C@H]3N=C4NCc2ccco2)N1	TGI	> 100 µM
O=C(O)C1C2C=CC(O2)C1C(=O)NCc1cccnc1 (stereo not given)	TGI	> 100 µM

Item COc1cc(/C=C/C(=O)c2cccc3ccccc23)cc(OC)c1OC was tested on LOX IMVI melanoma; the reported TGI is 12.1 µM

Item Clc1ccc(Nc2ncco2)cc1Cl was tested on LOX IMVI melanoma; the reported TGI is > 10 µM

====

Below, each entry is listed alongside its reported TGI.
System: RPMI-8226 leukemia
Assay: NCI tumour cell line growth inhibition, 48 h

Solved cases (3 shown):
COMPOUND	TARGET_DESC	REPORTED
c1ccc2c(c1)nnn2CNc1ccc(N2CCCCC2)cc1	RPMI-8226 leukemia	> 100 µM
Cc1ccccc1NC(=O)CC1C(=O)Nc2ccccc2S1=O (stereo not given)	RPMI-8226 leukemia	> 100 µM
O=C(NCCCCCCCCCCCCNC(=O)c1cnc2ccccc2n1)c1cnc2ccccc2n1	RPMI-8226 leukemia	> 100 µM

Field TGI (entry Oc1cc(O)c2c(c1)O[C@H](c1ccc(O)c(O)c1)[C@@H](O)C2 ) reads > 100 µM

Field TGI (entry N/C(=N\N=C\c1cc2ccccc2s1)c1cnccn1 ) reads > 100 µM

Field TGI (entry C[C@H]1CCC/C=C/C2CC(OC(=O)CN(C)C)CC2C(OC(=O)CN(C)C)/C=C/C(=O)O1 (stereo not given in full) ) reads > 81.4 µM

Field TGI (entry O=S(=O)(O)c1ccc2c(N=Nc3cccc4ccccc34)c(O)ccc2c1 ) reads > 100 µM

Field TGI (entry O=C(O)C1C2C=CC(O2)C1C(=O)NCc1cccnc1 (stereo not given) ) reads > 100 µM

Field TGI (entry CC1=C(C(=O)Nc2cccc(Cl)c2)C(c2ccccc2O)C(C(=O)Nc2cccc(Cl)c2)=C(C)N1 ) reads 46 µM

Field TGI (entry CC(C)N(C(=O)C12C3C4C1C1C2C3C41C(=O)C(C)(C)C)C(C)C (stereo not given) ) reads > 100 µM

====

Tested on: TK-10 renal
Assay: NCI tumour cell line growth inhibition, 48 h
Below, each entry is listed alongside its reported TGI.

Solved cases (3 shown):
COMPOUND	TGI
COc1c(C)c(C/C=C(\C)CC/C=C(\C)CC/C=C(\C)CCC=C(C)C)c(OC)c(OC)c1OC	> 100 µM
CCOC(=O)/C(Br)=C1\OC(=O)c2ccccc2-c2ccccc21	> 100 µM
CCOC(=O)NN(C(=O)OCC)c1ccc(N=Nc2ccc(OC)cc2)n1C	> 100 µM

Field TGI (entry O=C(Nc1ccccc1)c1cc2ccccc2c(N=Nc2cccc([N+](=O)[O-])c2)c1O ) reads > 100 µM

Field TGI (entry COC(=O)c1cc(-c2ccc3ccccc3c2)[nH]c(=O)c1C#N ) reads > 100 µM

Field TGI (entry N#CCCN(CCC#N)c1ccc(/C=C(/NC(=O)c2cc([N+](=O)[O-])ccc2Cl)C(=O)N=[N+]=[N-])cc1 ) reads > 100 µM

Field TGI (entry C[C@@H]1CC[C@H]2[C@@H](C)C(O)O[C@@H]3O[C@]4(C)CC[C@@H]1[C@]32OO4 (some centres undefined) ) reads 9.64 µM

Field TGI (entry COc1ccc(-c2nn(-c3cccc(Cl)c3)cc2/C=C2\NC(=S)N(c3ccc(Cl)cc3)C2=O)cc1 ) reads 16 µM

Field TGI (entry C/C(NNC(=O)c1ccccc1O)=C1\C=Nc2ccccc2S1 ) reads > 100 µM

====

Test system: SK-MEL-5 melanoma
Test: NCI tumour cell line growth inhibition, 48 h; in the data active = GI50 below about 0.43 µM; inactive = the rest
Select the correct class. Options are active, inactive and nothing else.

COMPOUND	TARGET_DESC	ASSIGNED_LABEL
CN(C)c1ccc(/C=C/C(=O)c2ccc(Nc3nc(Nc4ccc(F)cc4)nc(Nc4ccc(F)cc4)n3)cc2)cc1	SK-MEL-5 melanoma	inactive
CCN(CC)CCNc1c2ccccc2nc2cccc([N+](=O)[O-])c12	SK-MEL-5 melanoma	active
COc1ccc(-c2nn(-c3cccc(Cl)c3)cc2/C=C2\NC(=S)N(c3ccc(Cl)cc3)C2=O)cc1	SK-MEL-5 melanoma	inactive

# input Kindly provide the recorded test outcome for the following compound: Cc1cc(S(=O)(=O)/N=C(\N)Nc2cccc(O)c2)c(SCc2ccccc2)cc1Cl
# output inactive

# input Kindly provide the recorded test outcome for the following compound: O=CC(OC(=O)c1ccccc1)C(OC(=O)c1ccccc1)C(COC(c1ccccc1)(c1ccccc1)c1ccccc1)OC(=O)c1ccccc1 (stereo unspecified)
# output inactive

# input Kindly provide the recorded test outcome for the following compound: COc1ccccc1-n1cnc(N)c1C(=O)c1cc(OC)c(OC)c(OC)c1
# output inactive

# input Kindly provide the recorded test outcome for the following compound: Cc1nnc(C[C@@H]2C=C(c3ccc(Cl)cc3)c3ccccc3-n3c(C)nnc32)o1
# output inactive

# input Kindly provide the recorded test outcome for the following compound: CCN(C(=O)N1CCN(c2cc3c(cc2F)c(=O)c(C(=O)O)cn3C2CC2)CC1)c1nc(-c2ccccc2)cs1
# output inactive

# input Kindly provide the recorded test outcome for the following compound: Cc1cc2c(cc1Cl)SC(N(c1ccccc1Cl)S(=O)(=O)c1ccc(Br)s1)=NS2(=O)=O
# output inactive

# input Kindly provide the recorded test outcome for the following compound: COc1cccc(/C=N/[N-]C(=O)c2ccncc2)c1[O-].[Mn+2].[OH3+]
# output inactive

# input Kindly provide the recorded test outcome for the following compound: CC/C=C\C[C@H]1C/C=C2/C(=O)C=C[C@H]2C/C=C\CCCC(=O)O1
# output inactive

====

Test system: NCI-H226 lung
Assay: NCI tumour cell line growth inhibition, 48 h
Below, each entry is listed alongside its reported TGI.

Solved cases (5 shown):
COMPOUND	REPORTED
N#CCCN(CCC#N)c1ccc(/C=C(/NC(=O)c2cc([N+](=O)[O-])ccc2Cl)C(=O)N=[N+]=[N-])cc1	> 100 µM
CON(C)c1nc(N)c(C#N)c(C#N)c1C#N	> 10 µM
Cc1nnc(C[C@@H]2C=C(c3ccc(Cl)cc3)c3ccccc3-n3c(C)nnc32)o1	> 100 µM
N#C/C(=C\c1ccc(O)c(O)c1)C(=O)NCc1ccc(C(F)(F)F)cc1	54.9 µM
C=C1C(=O)OC2C1CCC(=C)C1CC(O)C(=C)C12 (centres undefined)	> 63.1 µM

Consider the record given below.
Field TGI (entry C[C@@H]1CC[C@H]2[C@@H](C)C(O)O[C@@H]3O[C@]4(C)CC[C@@H]1[C@]32OO4 (some centres undefined) ) reads 40.9 µM
